Value source: PubChem BioAssay AID1259407

- Test system: CCRIS mutagenicity, Ames/micronucleus/aberration tests
- MEASUREMENT_PROTOCOL: CCRIS mutagenicity studies
- TEST_CONTEXT: Test System: AMES SALMONELLA TYPHIMURIUM; Strain/Indicator: TA1538; Metabolic Activation: RAT, LIVER, S-9, PHENOBARBITAL AND 5,6-BENZOFLAVONE; Method: PREINCUBATION
The source made the active and inactive calls. How the calls were made is not given here.
Mark one answer only. Choices: yes (1) = active, no (0) = inactive

// below: answered compounds
MOLECULE: O=c1ccc(=O)c2c(=O)c(Cl)c(Cl)c(=O)c1=2
CLASS: no (0)
--
MOLECULE: O=C1C=CC(=O)c2ccccc21
CLASS: no (0)
--
MOLECULE: O=C1C=C(Nc2ccccc2)C(=O)c2ccccc21
CLASS: yes (1)

Outcome? `O=C1C=CC(=O)c2c(O)c(Cl)c(Cl)c(O)c21`
no (0)
